- Measurement Target: CaNbp2
- Test Description: SPOT peptide array binding signal intensity (averaged, normalized) (arbitrary units (background-subtracted, floor 0; scale differs between SH3 domains)); higher = stronger binding of the SH3 domain to the peptide
Quantity Measured: SPOT peptide array binding signal intensity

Binder	Relation Symbol	Data Value
RSRRSSFAYPQQVAI	=	130
GKLKHIPRRPYEIER	≤	0
RRRDFGAPANKRPRR	=	138
SKIRPTPRKPSRMAT	=	437
MAMRPIPPLPTESEY	=	628
FPPKRKPLLRPQRSD	=	371
EREKALPPIPFTTTL	≤	0
